Where do the numbers come from? From ChEMBL document CHEMBL1142961.

# MEASUREMENT TARGET: Aminopeptidase N (Plasmodium falciparum FcB1/Columbia) (UniProt O96935)
# ASSAY TEXT: Inhibition of Plasmodium falciparum FcB1 M1 aminopeptidase at 10 uM
QUANTITY: inhibition (%)

O=C(NO)C(Cc1ccccc1)C(=O)N1CCN(Cc2ccc3c(c2)OCO3)CC1 (stereo unspecified)    53
O=C(NO)C(Cc1cccc(Oc2ccccc2)c1)C(=O)N1CCN(c2ccccc2)CC1 (stereo unspecified)    38
NC(C(=O)NO)C(=O)NCc1cccnc1 (stereo unspecified)    -6
CC(C)CC(C(=O)NO)C(=O)N1CCc2ccccc2C1 (stereo unspecified)    74
O=C(NO)C(Cc1cccc(Oc2ccccc2)c1)C(=O)NCCCc1ccccc1 (stereo unspecified)    93

I: NC(C(=O)NO)C(=O)N1CCC2(CC1)C(=O)NCN2c1ccccc1 (stereo unspecified)
II: NC(C(=O)NO)C(=O)NCc1ccc(Cl)cc1 (stereo unspecified)
Sorting by inhibition in descending order, would I or II appear first? Record your answer as the label of the chosen record.
II
(II: 5%, I: -6%)

P: O=C(NO)C(Cc1ccccc1)C(=O)NC1CCN(Cc2ccccc2)CC1 (stereo unspecified)
Q: NC(C(=O)NO)C(=O)NCCCCc1ccccc1 (stereo unspecified)
I need your help: which of the pair P , Q has higher inhibition? Respond using the label that marks the chosen record.
Q

A: O=C(CC(=O)N1CCC2(CC1)C(=O)NCN2c1ccccc1)NO
B: O=C(NO)C(Cc1ccccc1)C(=O)NCCCc1ccccc1 (stereo unspecified)
Among A and B , whose measured inhibition is the smaller figure? Kindly state the label of the option you pick.
A
(A: 5%, B: 94%)

###

# MEASUREMENT TARGET: Aminopeptidase N (Plasmodium falciparum FcB1/Columbia)
# ASSAY TEXT: Inhibition of Plasmodium falciparum FcB1 M1 aminopeptidase at 10 uM
QUANTITY: inhibition (%)

I: O=C(CC(=O)NCc1cccnc1)NO
II: O=C(CC(=O)NCCc1ccccn1)NO
III: O=C(NO)C(Cc1cccc(Oc2ccccc2)c1)C(=O)NC1CCN(Cc2ccccc2)CC1 (centres undefined)
Sort (3 compounds) by inhibition: min first. Answer by listing the labels in the requested order.
II, I, III
(II: -2%, I: 3%, III: 5%)

P: NC(C(=O)NO)C(=O)N1CCC2(CCNc3ccccc3O2)CC1 (centres undefined)
Q: NC(C(=O)NO)C(=O)NCCNc1cccc2ccccc12 (centres undefined)
Decide: P or Q , by lowest recorded inhibition. Your choice should be expressed through its label.
P
(P: -4%, Q: 2%)

###

# MEASUREMENT TARGET: Aminopeptidase N (Sus scrofa)
# ASSAY TEXT: Inhibition of pig kidney microsomal APN at 10 uM
QUANTITY: inhibition (%)

Examples from the recorded data:
NC(C(=O)NO)C(=O)NCc1cccnc1 (configuration not stated)    24
NC(C(=O)NO)C(=O)N1CCc2ccccc2C1 (configuration not stated)    32
O=C(NO)C(Cc1ccccc1)C(=O)N1CCC(n2c(=O)[nH]c3ccccc32)CC1 (configuration not stated)    56
NC(C(=O)NO)C(=O)NCc1ccc(F)cc1 (configuration not stated)    18

A: O=C(NO)C(Cc1ccccc1)C(=O)NC1Cc2ccccc2C1 (configuration not stated)
B: NC(C(=O)NO)C(=O)NCc1cccc(Oc2ccccc2)c1 (configuration not stated)
In the pair A and B , the larger recorded inhibition belongs to which? API: response body contains the label of the selected item.
A

###

# MEASUREMENT TARGET: Aminopeptidase N (Sus scrofa)
# Sequence (whole entry): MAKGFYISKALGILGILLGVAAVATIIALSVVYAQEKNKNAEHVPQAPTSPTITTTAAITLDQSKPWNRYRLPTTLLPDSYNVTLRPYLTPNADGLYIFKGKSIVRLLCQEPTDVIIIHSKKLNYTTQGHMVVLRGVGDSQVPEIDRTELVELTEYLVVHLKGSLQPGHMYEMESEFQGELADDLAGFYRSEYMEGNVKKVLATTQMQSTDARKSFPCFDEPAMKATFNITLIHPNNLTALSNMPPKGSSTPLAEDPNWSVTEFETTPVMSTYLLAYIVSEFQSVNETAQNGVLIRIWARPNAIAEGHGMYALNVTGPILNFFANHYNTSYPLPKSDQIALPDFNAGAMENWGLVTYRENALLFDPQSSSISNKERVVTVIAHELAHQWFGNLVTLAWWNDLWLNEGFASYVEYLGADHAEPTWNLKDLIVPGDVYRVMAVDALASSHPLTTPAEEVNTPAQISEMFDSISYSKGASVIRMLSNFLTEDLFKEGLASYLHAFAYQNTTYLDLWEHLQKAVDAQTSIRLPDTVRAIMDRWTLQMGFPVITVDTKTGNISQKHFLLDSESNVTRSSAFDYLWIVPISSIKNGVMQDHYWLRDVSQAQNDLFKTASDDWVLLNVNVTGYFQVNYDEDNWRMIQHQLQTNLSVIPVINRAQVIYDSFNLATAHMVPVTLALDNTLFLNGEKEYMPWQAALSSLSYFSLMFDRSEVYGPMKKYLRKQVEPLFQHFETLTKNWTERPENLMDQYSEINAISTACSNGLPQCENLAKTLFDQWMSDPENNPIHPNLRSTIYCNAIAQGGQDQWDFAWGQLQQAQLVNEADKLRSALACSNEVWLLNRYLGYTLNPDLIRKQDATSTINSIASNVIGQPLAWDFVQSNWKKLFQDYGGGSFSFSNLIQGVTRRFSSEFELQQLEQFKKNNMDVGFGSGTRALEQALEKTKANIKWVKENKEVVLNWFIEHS
# ASSAY TEXT: Inhibition of pig kidney microsomal APN at 10 uM
QUANTITY: inhibition (%)

Cc1ccccc1CNC(=O)C(N)C(=O)NO (centres undefined)    23

a: O=C(NO)C(Cc1ccccc1)C(=O)NCCCCc1ccccc1 (centres undefined)
b: CC(C)CN(CCCCc1ccccc1)C(=O)C(Cc1ccccc1)C(=O)NO (centres undefined)
c: O=C(CC(=O)NCc1cccnc1)NO
Hey, can you sort those molecules up there by inhibition, smallest first? # respond with the labels, arranged in the requested order
c, b, a

###

# MEASUREMENT TARGET: Aminopeptidase N (Sus scrofa)
# ASSAY TEXT: Inhibition of pig kidney microsomal APN at 10 uM
QUANTITY: inhibition (%)

O=C(NO)C(Cc1cccc(Oc2ccccc2)c1)C(=O)NCc1cccc(-c2ccccc2)c1 (centres undefined)    81
NC(C(=O)NO)C(=O)N1CCC(n2c(=O)[nH]c3ccccc32)CC1 (centres undefined)    34
O=C(NO)C(Cc1ccccc1)C(=O)N1CCN(Cc2ccc3c(c2)OCO3)CC1 (centres undefined)    29
CC(C)CC(C(=O)NO)C(=O)NCCNc1cccc2ccccc12 (centres undefined)    93
NC(C(=O)NO)C(=O)N1CCC(Cc2ccccc2)CC1 (centres undefined)    39
NC(C(=O)NO)C(=O)NCc1ccc(Cl)cc1 (centres undefined)    54

1: O=C(NO)C(Cc1cccc(Oc2ccccc2)c1)C(=O)N(CCc1ccccc1)Cc1ccccc1 (centres undefined)
2: NC(C(=O)NO)C(=O)NCCc1ccccc1 (centres undefined)
API: POST /compare with 1 and 2 ; response names the item with higher inhibition. Answer by quoting the chosen item's label.
1
(1: 67%, 2: 25%)

A: CC(C)CC(C(=O)NO)C(=O)N[C@H]1CCN(Cc2ccccc2)C1 (some centres undefined)
B: NC(C(=O)NO)C(=O)NC1CCN(Cc2ccccc2)CC1 (centres undefined)
Would you let me know which has the greater inhibition value, A or B ? # reply format: chosen label
A
(A: 86%, B: 25%)

###

# MEASUREMENT TARGET: Aminopeptidase N (Plasmodium falciparum FcB1/Columbia, UniProt O96935)
# Sequence (O96935 whole entry): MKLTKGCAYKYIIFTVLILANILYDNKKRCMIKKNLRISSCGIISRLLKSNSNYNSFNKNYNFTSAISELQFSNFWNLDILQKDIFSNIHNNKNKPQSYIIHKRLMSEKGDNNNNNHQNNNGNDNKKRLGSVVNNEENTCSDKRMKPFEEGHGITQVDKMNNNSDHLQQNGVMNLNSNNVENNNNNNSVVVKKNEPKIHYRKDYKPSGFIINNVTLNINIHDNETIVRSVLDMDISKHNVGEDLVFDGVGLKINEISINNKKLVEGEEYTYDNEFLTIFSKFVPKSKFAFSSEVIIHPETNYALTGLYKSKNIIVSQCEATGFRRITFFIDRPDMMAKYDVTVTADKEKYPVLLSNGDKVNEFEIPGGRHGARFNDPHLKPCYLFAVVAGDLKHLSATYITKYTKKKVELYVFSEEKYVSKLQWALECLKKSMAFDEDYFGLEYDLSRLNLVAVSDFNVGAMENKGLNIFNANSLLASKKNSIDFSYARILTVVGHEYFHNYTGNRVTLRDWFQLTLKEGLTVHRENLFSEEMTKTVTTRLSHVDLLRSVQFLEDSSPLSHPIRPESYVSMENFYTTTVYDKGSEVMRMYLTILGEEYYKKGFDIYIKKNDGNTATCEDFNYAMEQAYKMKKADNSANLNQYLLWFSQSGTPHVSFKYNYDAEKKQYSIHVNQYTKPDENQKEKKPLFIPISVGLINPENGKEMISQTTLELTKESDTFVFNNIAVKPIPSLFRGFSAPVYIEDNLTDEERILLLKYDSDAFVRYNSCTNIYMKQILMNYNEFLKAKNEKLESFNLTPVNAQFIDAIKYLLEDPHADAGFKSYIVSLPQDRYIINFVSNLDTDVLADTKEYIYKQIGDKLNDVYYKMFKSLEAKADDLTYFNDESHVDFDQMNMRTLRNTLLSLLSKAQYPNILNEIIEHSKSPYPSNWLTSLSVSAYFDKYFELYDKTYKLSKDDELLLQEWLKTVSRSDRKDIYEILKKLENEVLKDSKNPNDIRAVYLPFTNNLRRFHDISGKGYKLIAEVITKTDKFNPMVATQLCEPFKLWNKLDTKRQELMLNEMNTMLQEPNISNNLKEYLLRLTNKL
QUANTITY: IC50 (nM)
Provide only the numeric value, understood in nM.

O=C(NO)C(Cc1cccc(Oc2ccccc2)c1)C(=O)N1CCC(Cc2ccccc2)CC1 (stereo not drawn)    248

API: the following record is the query input.
What value of IC50 has been recorded for this entry: O=C(NO)C(Cc1ccccc1)C(=O)NCc1ccc(F)cc1 (stereo not drawn)
27
